test system: blackgrass; assay: Test C pre-/postemergence test; format: in vivo, Alopecurus myosuroides; conditions: 62 g ai/ha, Preemergence; scale 0 to 100

molecule	Blackgrass plant response rating
Cn1nc(C(F)(F)F)c(C[S+]([O-])c2cc(C(C)(C)C)cc[n+]2[O-])c1OC(F)F (racemic)	20
CC(Oc1c(C[S+]([O-])c2ccc(Cl)c[n+]2[O-])c(C(F)(F)F)nn1C)C(F)(F)F (stereo not drawn)	100
CC(Oc1c(C[S+]([O-])c2cccc[n+]2[O-])c(C(F)(F)F)nn1C)C(F)(F)F (stereo not drawn)	100
Cn1nc(C(F)(F)F)c(C(Cl)S(=O)(=O)c2cccc[n+]2[O-])c1OC(F)F (stereo not drawn)	90
Cc1cc[n+]([O-])c([S+]([O-])Cc2c(C(F)(F)F)nn(C)c2OCC(F)(F)F)c1 (racemic)	100
Cn1nc(C(F)(F)F)c(C[S+]([O-])c2ccc(Cl)c[n+]2[O-])c1OCC(F)(F)F (racemic)	98
CCn1nc(C(F)(F)F)c(C[S+]([O-])c2cccc[n+]2[O-])c1OCC(F)(F)F (racemic)	100
CCn1nc(C(F)(F)F)c(CS(=O)(=O)c2cccc[n+]2[O-])c1OCC(F)(F)F	100
Cn1nc(C(F)(F)F)c(CS(=O)(=O)c2ccc(Cl)c[n+]2[O-])c1Cl	0

###

The entries below come with measured Plant response rating, Surinam Grass values attached.
tested on: Surinam grass; experiment: Test C pre-/postemergence test; type: in vivo, Brachiaria decumbens; conditions: Preemergence, 31 g ai/ha; scale 0 to 100 (0 no effect, 100 complete control)
measurementName: Plant response rating, Surinam Grass

compound	measurementName	measuredResult
CCc1cc[n+]([O-])c([S+]([O-])Cc2c(C(F)(F)F)nn(C)c2OC(F)F)c1 (stereo not drawn)	Plant response rating, Surinam Grass	60
Cn1nc(C(F)(F)F)c(C[S+]([O-])c2ccc(Cl)c[n+]2[O-])c1OCC(F)(F)F (racemic)	Plant response rating, Surinam Grass	80
Cc1cc[n+]([O-])c([S+]([O-])Cc2c(C(F)(F)F)nn(C)c2Cl)c1 (racemic)	Plant response rating, Surinam Grass	0
C#CCOc1c(C[S+]([O-])c2cccc[n+]2[O-])c(C(F)(F)F)nn1C (stereo not drawn)	Plant response rating, Surinam Grass	0
Cn1nc(C(F)(F)F)c(CS(=O)(=O)c2ccc(Cl)c[n+]2[O-])c1Cl	Plant response rating, Surinam Grass	0
Cn1nc(C(F)(F)F)c(C[S+]([O-])c2ccc(F)c[n+]2[O-])c1OCC(F)(F)F (stereo not drawn)	Plant response rating, Surinam Grass	85
Cn1nc(C(F)(F)F)c(C[S+]([O-])c2cc(C(F)(F)F)cc[n+]2[O-])c1Cl (racemic)	Plant response rating, Surinam Grass	0
Cc1cc[n+]([O-])c(S(=O)(=O)C(Cl)c2c(C(F)(F)F)nn(C)c2Cl)c1 (racemic)	Plant response rating, Surinam Grass	10
Cn1nc(C(F)(F)F)c(C[S+]([O-])c2cc(Br)cc[n+]2[O-])c1Cl (racemic)	Plant response rating, Surinam Grass	30
CC(C)c1cc[n+]([O-])c([S+]([O-])Cc2c(C(F)(F)F)nn(C)c2OC(F)F)c1 (stereo not drawn)	Plant response rating, Surinam Grass	50
Cn1nc(OC(F)F)c(CS(=O)(=O)c2cccc[n+]2[O-])c1C(F)(F)F	Plant response rating, Surinam Grass	70
CC(c1c(C(F)(F)F)nn(C)c1OCC(F)(F)F)S(=O)(=O)c1cccc[n+]1[O-] (racemic)	Plant response rating, Surinam Grass	80
Cn1nc(C(F)(F)F)c(C[S+]([O-])c2cc(Cl)cc[n+]2[O-])c1Cl (racemic)	Plant response rating, Surinam Grass	60
Cn1nc(C(F)(F)C(F)(F)F)c(C[S+]([O-])c2ccc(Cl)c[n+]2[O-])c1OCC(F)(F)F (stereo not drawn)	Plant response rating, Surinam Grass	70
Cc1cc[n+]([O-])c(S(=O)(=O)Cc2c(C(F)(F)F)nn(C)c2OCC(F)(F)F)c1	Plant response rating, Surinam Grass	85
Cn1nc(C(F)(F)F)c(C[S+]([O-])c2cc(C(C)(C)C)cc[n+]2[O-])c1OC(F)F (racemic)	Plant response rating, Surinam Grass	20
CCn1nc(C(F)(F)F)c(CS(=O)(=O)c2cccc[n+]2[O-])c1OCC(F)(F)F	Plant response rating, Surinam Grass	100
Cn1nc(C(F)(F)F)c(C[S+]([O-])c2cc(F)cc[n+]2[O-])c1Cl (racemic)	Plant response rating, Surinam Grass	60

###

test system: barnyardgrass; assay: Test A pre-/postemergence greenhouse test; format: in vivo, Echinochloa crus-galli; conditions: Postemergence, 125 g ai/ha; 0 to 100 scale, 0 is no effect, 100 is complete control

compound	Barnyardgrass plant response rating
Cc1cc[n+]([O-])c([S+]([O-])Cc2c(C(F)(F)F)nn(C)c2OCC(F)(F)F)c1 (racemic) [Compound 30]	70
CC(c1c(C(F)(F)F)nn(C)c1OC(F)F)S(=O)(=O)c1cc(C(C)(C)C)cc[n+]1[O-] (racemic) [Compound 26]	0
CC(c1c(C(F)(F)F)nn(C)c1OC(F)F)S(=O)(=O)c1cccc[n+]1[O-] (stereo not shown) [Compound 5]	80
Cn1nc(C(F)(F)F)c(C[S+]([O-])c2cc(Br)cc[n+]2[O-])c1Cl (racemic) [Compound 35]	50

###

The entries below come with measured Plant response rating, Canarygrass values attached.
tested on: canarygrass; experiment: Test C postemergence test; assay type: in vivo, Phalaris minor; conditions: 125 g ai/ha, scale 0 to 100, 0 no effect, 100 complete control
measurementName: Plant response rating, Canarygrass

compound	measuredResult
CCn1nc(C(F)(F)F)c(C(C)S(=O)(=O)c2cccc[n+]2[O-])c1OCC(F)(F)F (stereo not drawn) [Compound 69]	0
[O-][n+]1cc(Cl)ccc1[S+]([O-])Cc1c(C(F)(F)F)nn(CC(F)(F)F)c1Cl (stereo not drawn) [Compound 47]	0
CC(c1c(C(F)(F)F)nn(C)c1OC(F)F)S(=O)(=O)c1cccc[n+]1[O-] (stereo not drawn) [Compound 5]	0

###

system: corn; test: Test C pre-/postemergence test; assay type: in vivo, Zea mays; conditions: 62 g ai/ha, preemergence; scale 0 (no effect) to 100 (complete control)

compound	system	Corn plant response rating
Cn1nc(C(F)(F)F)c(C[S+]([O-])c2ccc(Br)c[n+]2[O-])c1OC(F)F (racemic) [Compound 16]	corn	95
Cn1nc(C(F)(F)F)c(C[S+]([O-])c2cccc[n+]2[O-])c1OC(F)F (stereo not shown) [Compound 3]	corn	75
Cc1cc[n+]([O-])c(S(=O)(=O)Cc2c(C(F)(F)F)nn(C)c2OC(F)F)c1 [Compound 2]	corn	5
Cc1cc[n+]([O-])c(S(=O)(=O)C(C)c2c(C(F)(F)F)nn(C)c2Cl)c1 (racemic) [Compound 14]	corn	20
Cn1nc(C(F)(F)F)c(CS(=O)(=O)c2cccc[n+]2[O-])c1OC(F)F [Compound 4]	corn	50
Cn1nc(C(F)(F)F)c(CS(=O)(=O)c2ccc(Cl)c[n+]2[O-])c1OC(F)F [Compound 7]	corn	0
Cn1nc(C(F)(F)F)c(C(Cl)S(=O)(=O)c2cccc[n+]2[O-])c1Cl (stereo not shown) [Compound 12]	corn	0

###

test system: field bindweed; assay: Test F preemergence test; type: in vivo, Convolvulus arvensis; conditions: 62 g ai/ha, Preemergence; scale 0 to 100
The entries below come with measured Field Bindweed plant response rating values attached.
measurementName: Field Bindweed plant response rating

compound	measurementName	measuredResult
Cc1cc[n+]([O-])c([S+]([O-])Cc2c(C(F)(F)F)nn(C)c2OC(F)F)c1 (centres unmarked)	Field Bindweed plant response rating	75
Cc1cc[n+]([O-])c([S+]([O-])Cc2c(C(F)(F)F)nn(C)c2Cl)c1 (racemic)	Field Bindweed plant response rating	15
CC(c1c(C(F)(F)F)nn(C)c1OC(F)F)S(=O)(=O)c1cccc[n+]1[O-] (centres unmarked)	Field Bindweed plant response rating	0
CCn1nc(C(F)(F)F)c(C[S+]([O-])c2cc(C)cc[n+]2[O-])c1OCC(F)(F)F (racemic)	Field Bindweed plant response rating	40
Cc1cc([S+]([O-])Cc2c(C(F)(F)F)nn(C)c2OCC(F)(F)F)[n+]([O-])cc1Cl (centres unmarked)	Field Bindweed plant response rating	40
Cn1nc(C(F)(F)F)c(C[S+]([O-])c2cccc[n+]2[O-])c1OCC(F)(F)F (racemic)	Field Bindweed plant response rating	80
Cn1nc(C(F)(F)F)c(CS(=O)(=O)c2cccc[n+]2[O-])c1OCC(F)(F)F	Field Bindweed plant response rating	0
Cn1nc(C(F)(F)F)c(CS(=O)(=O)c2cccc[n+]2[O-])c1OC(F)F	Field Bindweed plant response rating	0

###

The entries below come with measured Plant response rating, Sedge, Umbrella values attached.
test system: umbrella sedge; test: Test C flooded paddy test; format: in vivo, Cyperus difformis; details: Flood, 62 g ai/ha; scale 0 to 100, 0 no effect, 100 complete control; 13 to 15 days
measurementName: Plant response rating, Sedge, Umbrella

molecule	measurementName	measuredResult
CC(c1c(C(F)(F)F)nn(C)c1OC(F)F)S(=O)(=O)c1cc(C(C)(C)C)cc[n+]1[O-] (racemic)	Plant response rating, Sedge, Umbrella	80
Cn1nc(C(F)(F)F)c(CS(=O)(=O)c2cc(F)cc[n+]2[O-])c1Cl	Plant response rating, Sedge, Umbrella	80
Cn1nc(C(F)(F)F)c(C[S+]([O-])c2ccc(Cl)c[n+]2[O-])c1Cl (racemic)	Plant response rating, Sedge, Umbrella	85
Cc1cc[n+]([O-])c([S+]([O-])C(C)c2c(C(F)(F)F)nn(C)c2Cl)c1 (mixture of isomers)	Plant response rating, Sedge, Umbrella	85

Sourced from patent US20100298141A1
